# SYSTEM TESTED: T1, Cynomolgus OSM (cynomolgus, UniProt A0A2K5VPC6 26-221)
# T1 construct: also called Cyno OSM; cynomolgus macaque OSM
# T1 sequence: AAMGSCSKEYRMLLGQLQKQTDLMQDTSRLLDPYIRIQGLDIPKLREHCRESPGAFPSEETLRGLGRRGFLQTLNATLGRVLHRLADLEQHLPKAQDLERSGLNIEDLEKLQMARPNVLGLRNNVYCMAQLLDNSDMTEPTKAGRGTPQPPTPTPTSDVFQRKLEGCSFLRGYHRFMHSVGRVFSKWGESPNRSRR
# ASSAY DETAILS: BIAcore kinetics, purified antibody
MEASUREMENT KIND: pKd
One number for each entry, as −log10 of the molar value.

# BINDER, pKd
measured = [
    ("Humanised 10G8 H0L1 (antibody, human IgG1, kappa, V domains shown, IgG1 kappa; mature H0 heavy chain and mature L1 light chain; also called Humanised 10G8 H0L1 parent) VH: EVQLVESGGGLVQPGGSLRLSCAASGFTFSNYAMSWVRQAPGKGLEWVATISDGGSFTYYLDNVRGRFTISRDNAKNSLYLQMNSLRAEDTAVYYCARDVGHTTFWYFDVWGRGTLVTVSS VL: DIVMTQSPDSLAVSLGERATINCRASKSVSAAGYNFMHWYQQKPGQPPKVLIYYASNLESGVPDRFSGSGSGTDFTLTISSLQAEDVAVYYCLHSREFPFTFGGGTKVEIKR", 9.60),
    ("10G8 chimaera (antibody, human IgG1, kappa, V domains shown, Mouse V regions on human gamma 1 wild type and human kappa constant regions; the entries called VH/VL domain (chimera) are full chains; also called 10G8 chimera; 10G8 Chimæra) VH: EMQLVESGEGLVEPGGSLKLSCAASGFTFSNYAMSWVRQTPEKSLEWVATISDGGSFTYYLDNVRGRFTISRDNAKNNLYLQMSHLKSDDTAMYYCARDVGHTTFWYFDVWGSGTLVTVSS VL: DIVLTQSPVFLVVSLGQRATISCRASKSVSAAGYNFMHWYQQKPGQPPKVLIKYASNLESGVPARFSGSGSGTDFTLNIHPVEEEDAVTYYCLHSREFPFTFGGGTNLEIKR", 9.40),
    ("Humanised 10G8 H2L1 (antibody, V domains shown) VH: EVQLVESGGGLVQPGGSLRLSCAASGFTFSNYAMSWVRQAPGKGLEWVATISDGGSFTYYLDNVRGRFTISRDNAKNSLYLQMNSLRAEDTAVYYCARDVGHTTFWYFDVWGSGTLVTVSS VL: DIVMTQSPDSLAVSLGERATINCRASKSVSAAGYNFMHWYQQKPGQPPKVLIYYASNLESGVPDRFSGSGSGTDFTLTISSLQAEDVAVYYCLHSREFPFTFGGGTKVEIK", 9.52),
    ("Humanised 10G8 H1L4 (antibody, V domains shown) VH: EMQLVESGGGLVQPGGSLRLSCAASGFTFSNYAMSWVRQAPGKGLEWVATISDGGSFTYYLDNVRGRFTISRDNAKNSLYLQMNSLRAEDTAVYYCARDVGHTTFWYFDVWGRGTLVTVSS VL: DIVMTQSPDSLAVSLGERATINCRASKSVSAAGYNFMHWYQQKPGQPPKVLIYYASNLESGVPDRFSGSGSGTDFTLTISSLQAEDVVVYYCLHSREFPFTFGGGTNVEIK", 9.58),
]

Read the next record carefully.
Form: binder = 15E10h, non-competitive anti-OSM humanised antibody (antibody, human IgG1, kappa, V domains shown, also called Humanised 15E10; humanised 15E10) VH: QVQLVESGGGVVQPGRSLRLSCAASGFSLTNYGVHWVRQAPGKGLEWVAVIWRGGSTDYNAAFMSRFTISKDNSKNTLYLQMNSLRAEDTAVYYCAKSPNSNFYWYFDVWGRGTLVTVSS VL: EIVLTQSPATLSLSPGERATLSCSGSSSVSYMYWYQQKPGQAPRLLIEDTSNLASGIPARFSGSGSGTDYTLTISNLEPEDFAVYYCQQWSSYPPTFGQGTKLEIKR ; pKd = 9.23
